- Tested on: Neisseria gonorrhoeae ISM68/126
- assay comment: MIC, standard dilution test, Neisseria gonorrhoeae ISM68/126
- Format: cell-based
- test settings: inoculum about 10^4 CFU/ml, 18-24 h at 37° C.
metric name: Minimal inhibitory concentration (MIC)
Give your answer as a number; write no unit.

Look over these answered cases.
CNC(=O)C1NC(=O)C2NC(=O)C(NC(=O)C3NC(=O)C4NC(=O)C(Cc5ccc(c(Cl)c5)Oc5cc3cc(c5OCCCCN)Oc3ccc(cc3Cl)C2O)NC(=O)C(N)c2ccc(O)c(c2)Oc2cc(O)cc4c2)c2ccc(O)c(c2)-c2c(O)cc(O)cc21 (centres unmarked) : 64
NC1C(=O)NC2Cc3ccc(c(Cl)c3)Oc3cc4cc(c3OC3CCOC3=O)Oc3ccc(cc3Cl)C(O)C3NC(=O)C(NC(=O)C4NC(=O)C(NC2=O)c2cc(O)cc(c2)Oc2cc1ccc2O)c1ccc(O)c(c1)-c1c(O)cc(O)cc1C(C(=O)O)NC3=O (centres unmarked) : 64
COC(=O)C1NC(=O)C2NC(=O)C(NC(=O)C3NC(=O)C4NC(=O)C(Cc5ccc(c(Cl)c5)Oc5cc3cc(c5OC(CCO)C(=O)O)Oc3ccc(cc3Cl)C2O)NC(=O)C(N)c2ccc(O)c(c2)Oc2cc(O)cc4c2)c2ccc(O)c(c2)-c2c(O)cc(O)cc21.Cl (centres unmarked) : 64

Switching to the query record.
Fill in: Minimal inhibitory concentration (MIC) of COC(=O)C1NC(=O)C2NC(=O)C(NC(=O)C3NC(=O)C4NC(=O)C(Cc5ccc(c(Cl)c5)Oc5cc3cc(c5OCCCCN(CCN(C)C)CCN(C)C)Oc3ccc(cc3Cl)C2O)NC(=O)C(N)c2ccc(O)c(c2)Oc2cc(O)cc4c2)c2ccc(O)c(c2)-c2c(O)cc(O)cc21 (centres unmarked) is ___
128
